Catalogue of composite z-score readings, one per entry.
Assay: binders of probe aFGF2 on microarray, primary screen, stem cell growth factor project, biochemical, small-molecule microarray, fluorescence 635/667 (AID 1067);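 also: measures binding of biotinylated aFGF2 protein to printed compounds on slides; z-score merges feature fluorescence and signal-to-noise across triplicate slides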
Settings: higher = more signal

compound	composite z-score
O=C1O[C@@H](c2ccccc2)[C@@H](c2ccccc2)N2[C@@H](c3ccc(O)cc3)[C@]3(C(=O)Nc4ccc(C#CC5(O)CCCCCC5)cc43)[C@@H](C(=O)N3CCCCCCC3)[C@H]12	0.764
COC(=O)C(CC#Cc1ccc2c(c1)[C@]1(C(=O)N2)[C@H](c2ccc(OCCO)cc2)N2[C@H](c3ccccc3)[C@H](c3ccccc3)OC(=O)[C@H]2[C@@H]1C(=O)NC[C@H](O)c1ccccc1)C(=O)OC	-0.0011
COc1ccc(C(=O)Nc2cccc(CN3C(=O)[C@]4(O[C@H](CC(=O)N5CCC[C@H]5CO)[C@@H]([Si](C)(C)c5ccc(OC)cc5)[C@@H]4C)c4ccccc43)c2)cc1	0.0257
